biological target: Isocitrate lyase (Mycobacterium tuberculosis) (UniProt P9WKK7); test: Inhibition of Mycobacterium tuberculosis H37Rv isocitrate lyase expressed in Escherichia coli HB101 at 10 umol/L
Sequence (P9WKK7 whole entry): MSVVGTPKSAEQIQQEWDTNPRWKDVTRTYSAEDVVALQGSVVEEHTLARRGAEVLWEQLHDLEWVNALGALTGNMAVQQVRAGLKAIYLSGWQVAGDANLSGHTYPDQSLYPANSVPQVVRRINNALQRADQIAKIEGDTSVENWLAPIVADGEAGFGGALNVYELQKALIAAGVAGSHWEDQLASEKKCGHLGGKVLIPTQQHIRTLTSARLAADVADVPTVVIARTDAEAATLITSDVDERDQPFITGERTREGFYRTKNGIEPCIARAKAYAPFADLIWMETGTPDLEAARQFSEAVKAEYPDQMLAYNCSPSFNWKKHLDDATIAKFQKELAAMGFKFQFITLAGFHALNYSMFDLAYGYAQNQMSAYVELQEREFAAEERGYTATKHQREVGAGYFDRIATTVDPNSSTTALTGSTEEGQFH
observed.property: inhibition (%)

1. COc1ccc(Cl)cc1C(=O)Nc1cc(C(F)(F)F)ccc1O
0
2. COc1ccc(Cl)cc1C(=S)Nc1ccc(Cl)cc1O
0
3. COc1cc(Cl)ccc1C(=O)Nc1cc(Cl)ccc1O
0
4. COc1cc(Cl)ccc1C(=O)Nc1cc(C(F)(F)F)ccc1O
0
5. COc1ccc(Cl)cc1C(=S)Nc1cc(C(F)(F)F)ccc1O
8
6. COc1cc(Cl)ccc1-c1nc2ccc(Br)cc2o1
0
7. COc1cc(Cl)ccc1C(=O)Nc1ccc(Br)cc1O
0
8. COc1ccc(Cl)cc1C(=O)Nc1ccc(Br)cc1O
0
9. COc1cc(Cl)ccc1C(=O)Nc1ccc(Cl)cc1OC(=O)c1ccc(Cl)cc1OC
0
10. COc1ccc(Cl)cc1C(=S)Nc1cc(Br)ccc1O
8
11. COc1cc(Cl)ccc1C(=S)Nc1cc(Cl)c(Cl)cc1O
0
12. COc1ccc(Cl)cc1C(=O)Nc1ccc(C(F)(F)F)cc1OC(=O)c1cc(Cl)ccc1OC
9
13. COc1ccc(Cl)cc1C(=S)Nc1ccc(C(F)(F)F)cc1O
21
14. COc1cc(Cl)ccc1C(=O)Nc1ccc(C(F)(F)F)cc1OC(=O)c1ccc(Cl)cc1OC
8
15. COc1ccc(Cl)cc1C(=S)Nc1cc(Cl)c(Cl)cc1O
9
16. COc1cc(Cl)ccc1C(=O)Nc1cc(Br)ccc1O
0
17. COc1ccc(Cl)cc1-c1nc2ccc(C(F)(F)F)cc2o1
0
18. COc1cc(Cl)ccc1C(=S)Nc1ccc(Cl)cc1O
10
19. COc1cc(Cl)ccc1C(=O)Nc1ccc(C(F)(F)F)cc1O
7
20. COc1cc(Cl)ccc1C(=O)Nc1cc(Cl)c(Cl)cc1O
0
21. COc1cc(Cl)ccc1C(=S)Nc1ccc(C(F)(F)F)cc1O
23
22. COc1ccc(Cl)cc1-c1nc2cc(Cl)c(Cl)cc2o1
4
23. COc1ccc(Cl)cc1-c1nc2ccc(Br)cc2o1
0
24. COc1cc(Cl)ccc1-c1nc2ccc(C(F)(F)F)cc2o1
0
25. COc1ccc(Cl)cc1C(=O)Nc1cc(Cl)ccc1O
0
26. COc1ccc(Cl)cc1C(=O)Nc1ccc(Cl)cc1O
10
27. COc1cc(Cl)ccc1-c1nc2cc(Cl)c(Cl)cc2o1
0
28. COc1ccc(Cl)cc1-c1nc2cc(Br)ccc2o1
0
29. COc1ccc(Cl)cc1C(=S)Nc1cc(Cl)ccc1O
0
30. COc1cc(Cl)ccc1C(=O)Nc1ccc(Cl)cc1O
4
31. COc1cc(Cl)ccc1-c1nc2cc(Br)ccc2o1
0
32. COc1ccc(Cl)cc1C(=O)Nc1cc(Cl)c(Cl)cc1OC(=O)c1cc(Cl)ccc1OC
3
33. COc1ccc(Cl)cc1C(=O)Nc1ccc(C(F)(F)F)cc1O
2
34. COc1cc(Cl)ccc1-c1nc2ccc(Cl)cc2o1
0
35. COc1ccc(Cl)cc1C(=O)Nc1cc(Cl)c(Cl)cc1O
7
36. COc1ccc(Cl)cc1C(=S)Nc1ccc(Br)cc1O
7
37. COc1cc(Cl)ccc1C(=S)Nc1cc(Br)ccc1O
0
38. O=C(O)CC[N+](=O)[O-]
25

----------
tested on: Mycobacterium kansasii; assay: Antimycobacterial activity against isoniazid resistance Mycobacterium kansasii 225/80 after 7 days by micromethod; assay type: functional; conditions: 225/80, 168 h
observed.property: log10 of MIC (log10 of the value in µM)

1) COc1ccc(Cl)cc1-c1nc2cc(Br)ccc2o1
2.40
2) COc1cc(Cl)ccc1C(=S)Nc1ccc(Br)cc1O
1.20
3) COc1ccc(Cl)cc1C(=O)Nc1cc(Cl)ccc1O
0.60
4) COc1cc(Cl)ccc1C(=S)Nc1ccc(Cl)cc1O
1.20
5) COc1ccc(Cl)cc1C(=O)Nc1cc(Cl)c(Cl)cc1O
2.10
6) COc1cc(Cl)ccc1C(=O)Nc1ccc(Br)cc1O
2.10
7) COc1cc(Cl)ccc1C(=O)Nc1cc(Cl)c(Cl)cc1O
2.70
8) COc1ccc(Cl)cc1C(=O)Nc1cc(Cl)c(Cl)cc1OC(=O)c1cc(Cl)ccc1OC
0.60
9) COc1cc(Cl)ccc1C(=S)Nc1cc(Br)ccc1O
1.20
10) COc1ccc(Cl)cc1C(=S)Nc1ccc(Cl)cc1O
1.20
11) COc1ccc(Cl)cc1-c1nc2cc(Cl)ccc2o1
2.40
12) COc1cc(Cl)ccc1C(=O)Nc1cc(Br)ccc1O
1.80

Data credit: ChEMBL document CHEMBL2086304
